Tgt: T1, hOrai1-mOrai1 ECL2 chimeric protein (human/mouse chimera, UniProt Q96D31 1-301)
T1 construct: human Orai1 with mouse ECL2; also called Ch
Experiment Notes: FACS, 293EBNA
Design: concentration or dose not given beside the values
Measure Name: percent of control (POC) of FACS Geo Mean

Item under review: mAb 2B7.1 (antibody, human IgG2, V domains shown, fully human, Campaign 1) VH: QVQLQQWGAGLLKPSETLSLTCAVYGGSFSGYYWSWIRQPPGKGLEWIGEIDHSGSTNYNPALKSRLTISVDTSKNQFSLKLSSVTAADTAVYYCARAGSGGYEDWFDPWGQGTLVTVSS VL: QSVLTQPPSVSGAPGQRVTISCTGSSSNIGTGYNVHWYQQFPRTDPKLLIYVYNIRPSGVPDRFSGSRSGTSASLAITGLQTEDEADYYCQSYDSSLSGVVFGGGTKLTVLG . Reported percent of control (POC) of FACS Geo Mean? < 1%
